# Tested on: COLO 205 colon
# MEASUREMENT_NOTES: NCI tumour cell line growth inhibition, 48 h; in the data active = GI50 below about 0.43 µM; inactive = the rest
Answer with one of the outcomes active, inactive

>>> df
                                   compound  category_label
0  COc1ccc(/C=N/NC(=O)c2cccc3cc[nH]c23)cc1O        inactive
1  COc1ccc(CCN=C2NC(=O)/C(=C/c3ccc4ncccc4c3)S2)cc1        inactive
2  Nc1n[nH]c2cc(F)c([C@@H]3Nc4ccc5[nH]ncc5c4[C@H]4C5CCC(C5)[C@@H]34)cc12 (some centres undefined)          active
3  Nc1cc(NN=C(c2ccc(O)cc2)c2ccc(O)cc2)c([N+](=O)[O-])cc1[N+](=O)[O-]        inactive
4  COc1ccc(-c2cn[nH]c2-c2cc(OC)c(OC)c(OC)c2)cc1          active
5  O=C1CCCCN1c1ccccc1C#C/C=C\C#Cc1ccccc1C(F)(F)F        inactive
6  C=C1C(=O)O[C@H]2[C@H]1CC/C(COC(=O)NCc1ccc(Cn3c(=O)sn(-c4ccc(OC)cc4)c3=O)cc1)=C\CC[C@@]1(C)O[C@@H]21        inactive
7  CCOC(=O)C1=C(C)N(c2ccc(F)cc2F)[C@]2(C#N)C(O)=C(Cl)C(Cl)=C(O)[C@]12C#N        inactive

// switching to the query compound
Query: // outcome(item) with item = COc1cccc(C(=O)NC(c2ccc(C)cc2)c2cc(Cl)c3cccnc3c2O)c1 (centres undefined)
Response: active

----------
Form field: TGI (one value per entry).
# Tested on: NCI-H226 lung
# MEASUREMENT_NOTES: NCI tumour cell line growth inhibition, 48 h

Before answering, review these 4 worked examples.
                                   compound  subject_of_test    result
0   COC(=O)C(CCCN1C(=O)c2ccccc2C1=O)C(=O)OC    NCI-H226 lung  > 100 µM
1  Nc1c(-c2ccc(Cl)c(Cl)c2)c2ccc([N+](=O)[O-])cc2c(=O)n1-c1nc2ccccc2s1    NCI-H226 lung   50.3 µM
2      O=C(/C=C/c1ccc2c(c1)OCO2)c1ccc(O)cc1    NCI-H226 lung   37.9 µM
3  Cc1ccnc(NS(=O)(=O)c2ccc(N=[N+]=[N-])cc2)n1    NCI-H226 lung  > 100 µM

Query: Give me measured TGI, please, for this compound: `c1ccc(Sc2ncnc3ccccc23)cc1`
Response: 56.2 µM

Query: Give me measured TGI, please, for this compound: `Oc1ccc2c(c1)c1c(n2CCN2CCOCC2)-c2ccccc2CC1`
Response: 85.6 µM

Query: Give me measured TGI, please, for this compound: `O=[N+]([O-])c1ccc(Cl)cc1N/N=C/c1ccnc2ccccc12`
Response: > 100 µM

Query: Give me measured TGI, please, for this compound: `CCn1c(-c2nonc2N)nc2c(C#CC(C)(C)O)nc(OC[C@@H](N)c3ccccc3)cc21`
Response: 16.2 µM

Query: Give me measured TGI, please, for this compound: `COC[C@H]1Cn2cc(-c3nc(Nc4ccnn4C)ncc3C)nc2C(=O)N1Cc1ccc(F)c(F)c1`
Response: > 100 µM

Query: Give me measured TGI, please, for this compound: `Cn1c2ccc3cc2c(=S)c2cc(ccc21)OCCOCCOCCOCCOCCOCCO3`
Response: > 10 µM

Query: Give me measured TGI, please, for this compound: CC(=O)N(C(=O)CC(=O)N1N=C(c2ccccc2)C(N=Nc2ccccc2[N+](=O)[O-])C1=O)c1ccc(Cl)cc1 (stereo unspecified)
Response: > 10 µM
